system: TRKA; construct: gene NTRK1; settings: concentration: 1 μM, replicates: in singlicate; n = 1;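 further: KINOMEscan kinase panel screen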
readoutName: %Inh

The value of %Inh measured for the compound CC(=O)Nc1nc2cnc(Nc3cc(NC(=O)c4cccc(C5(C#N)CC5)c4Cl)ccc3C)nc2s1 turned out to be 0%

%Inh reading for Cn1cc(-c2ccc3c(c2)CCN3C(=O)Cc2cccc(F)c2)c2c(N)ncnc21 [GSK2603358] : 34%

Lab book: %Inh of Nc1n[nH]c2cnc(-c3ccccc3)cc12 [SB-642124] noted as 0%

get_value(item= CC(C)c1nc(-c2cccc(NS(=O)(=O)c3c(F)cccc3F)c2F)c(-c2ccnc(Nc3ccc(N4CCOCC4)nc3)n2)s1 [GSK2008607] , readout=%Inh) returns 87%

Recorded %Inh (compound CSc1cccc2c(-c3ccncn3)c(-c3ccc(F)cc3)nn12 [GW514786] ): 16%

%Inh recorded for this compound, Cl.Cl.NCC(C(=O)Nc1cc(Br)c(-c2ccnc3[nH]ccc23)s1)c1ccccc1 (stereo not drawn) [GSK1269851] , is 19%

Short answer for Fc1ccc(-c2ncn(C3CCNCC3)c2-c2ccnc(Oc3ccc(-c4ccccc4)cc3)n2)cc1 [SB-245391] : %Inh was 13%

Entry c1ccc(-c2cnc3nccnn23)cc1 [AH20685] , %Inh reported as 0%

%Inh recorded for this compound, COc1cc(Nc2nccc(N3CCC(NC(=O)c4cc5ccccc5s4)C3)n2)cc(OC)c1OC (stereo not drawn) [GSK1379760] , is 21%
